Where do these numbers come from? They come from ChEMBL document CHEMBL5131499.

- Test system: Helix pomatia
- test: Inhibition of snail beta-mannosidase assessed as release of p-nitrophenol at 1000 uM using p-nitrophenyl glycoside as substrate by spectrometric assay relative control
measure name: inhibition (%)
I only need the number, in %, no unit after it.

Exercise: Item COc1ccc([C@]2(CO)NC[C@@H](O)[C@@H]2O)cc1OC has what recorded inhibition?
Key: 0

Exercise: Now the compound OC[C@]1(c2ccc(O)cc2)NC[C@H](O)[C@H]1O
Key: 0

Exercise: Now the compound C[C@]1(CO)NC[C@@H](O)[C@@H]1O
Key: 0

Exercise: Now the compound COc1cccc([C@]2(CO)NC[C@@H](O)[C@@H]2O)c1
Key: 0

Exercise: Now the compound Cc1ccc([C@@]2(CO)NC[C@H](O)[C@H]2O)cc1
Key: 0

Exercise: Now the compound CCCCCCCCC[C@]1(CO)NC[C@@H](O)[C@@H]1O
Key: 0

Exercise: Now the compound COc1ccc([C@@]2(CO)NC[C@H](O)[C@H]2O)cc1OC
Key: 0

Exercise: Now the compound OC[C@@]1(c2ccc(O)cc2)NC[C@@H](O)[C@@H]1O
Key: 0

Exercise: Now the compound CCCC[C@]1(CO)NC[C@@H](O)[C@@H]1O
Key: 3.6

Exercise: Now the compound COc1cccc([C@@]2(CO)NC[C@H](O)[C@H]2O)c1
Key: 0

Exercise: Now the compound OC[C@@]1(c2ccc(F)cc2)NC[C@@H](O)[C@@H]1O
Key: 0.8

---

- tested on: Alpha-galactosidase (Coffea arabica) (UniProt Q42656)
- Sequence (Q42656 16-378 limits assumed): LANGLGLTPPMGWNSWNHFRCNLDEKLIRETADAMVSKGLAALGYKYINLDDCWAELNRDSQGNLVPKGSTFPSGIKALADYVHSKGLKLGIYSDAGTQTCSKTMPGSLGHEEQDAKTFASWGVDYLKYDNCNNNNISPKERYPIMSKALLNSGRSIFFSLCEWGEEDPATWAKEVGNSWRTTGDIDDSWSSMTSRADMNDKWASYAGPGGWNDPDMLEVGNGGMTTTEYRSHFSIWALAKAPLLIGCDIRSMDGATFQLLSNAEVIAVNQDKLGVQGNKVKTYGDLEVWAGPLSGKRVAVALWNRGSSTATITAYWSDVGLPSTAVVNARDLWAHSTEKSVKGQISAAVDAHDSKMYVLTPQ
- test: Inhibition of coffee beans alpha-galactosidase assessed as release of p-nitrophenol at 1000 uM using p-nitrophenyl glycoside as substrate by spectrometric assay relative to control
Tick fulfilled if inhibition is 4% or greater. Tick not fulfilled if inhibition is less than 4%.

Exercise: Assess whether reported inhibition for C[C@]1(CO)NC[C@@H](O)[C@@H]1O sits at 4% or higher.
Key: not fulfilled

Exercise: Now the molecule OC[C@@]1(c2ccccc2)NC[C@@H](O)[C@@H]1O
Key: fulfilled

Exercise: Now the molecule OC[C@@]1(c2ccc(F)cc2)NC[C@@H](O)[C@@H]1O
Key: not fulfilled

Exercise: Now the molecule COc1ccc([C@]2(CO)NC[C@@H](O)[C@@H]2O)cc1
Key: fulfilled

Exercise: Now the molecule Cc1ccc([C@]2(CO)NC[C@@H](O)[C@@H]2O)cc1
Key: not fulfilled

Exercise: Now the molecule CCCC[C@]1(CO)NC[C@@H](O)[C@@H]1O
Key: fulfilled

Exercise: Now the molecule OC[C@]1(c2ccc(O)cc2)NC[C@H](O)[C@H]1O
Key: not fulfilled

Exercise: Now the molecule OC[C@]1(c2ccc(F)cc2)NC[C@H](O)[C@H]1O
Key: not fulfilled

Exercise: Now the molecule Cc1ccc([C@@]2(CO)NC[C@H](O)[C@H]2O)cc1
Key: not fulfilled

Exercise: Now the molecule COc1cccc([C@@]2(CO)NC[C@H](O)[C@H]2O)c1
Key: not fulfilled

Exercise: Now the molecule OC[C@@]1(c2cccc(F)c2)NC[C@@H](O)[C@@H]1O
Key: not fulfilled

Exercise: Now the molecule OC[C@@]1(c2c(F)c(F)c(F)c(F)c2F)NC[C@@H](O)[C@@H]1O
Key: not fulfilled

---

- Tested on: Oryza sativa
- test: Inhibition of rice alpha-glucosidase assessed as release of p-nitrophenol at 1000 uM using p-nitrophenyl glycoside as substrate by spectrometric assay relative to control
What inhibition was measured for each of the following?
I only need the number, in %, no unit after it.

Exercise: Item COc1ccc([C@]2(CO)NC[C@@H](O)[C@@H]2O)cc1OC has what recorded inhibition?
Key: 11.4

Exercise: Now the compound OC[C@]1(c2ccc(F)cc2)NC[C@H](O)[C@H]1O
Key: 6.4

Exercise: Now the compound OC[C@@]1(c2cccc(F)c2)NC[C@@H](O)[C@@H]1O
Key: 1.4

Exercise: Now the compound OC[C@@]1(c2ccccc2)NC[C@@H](O)[C@@H]1O
Key: 18.6

---

- Test system: Penicillium decumbens
- test: Inhibition of Penicillium decumbens alpha-L-rhamnosidase assessed as release of p-nitrophenol at 1000 uM using p-nitrophenyl glycoside as substrate by spectrometric assay relative to control
What inhibition was measured for each of the following?
I only need the number, in %, no unit after it.

Exercise: Item OC[C@@]1(c2ccccc2)NC[C@@H](O)[C@@H]1O has what recorded inhibition?
Key: 0

Exercise: Now the compound OC[C@@]1(c2cccc(F)c2)NC[C@@H](O)[C@@H]1O
Key: 0

Exercise: Now the compound COc1ccc([C@]2(CO)NC[C@@H](O)[C@@H]2O)cc1
Key: 0

Exercise: Now the compound OC[C@]1(c2ccc(O)cc2)NC[C@H](O)[C@H]1O
Key: 4.5

Exercise: Now the compound OC[C@@]1(c2c(F)c(F)c(F)c(F)c2F)NC[C@@H](O)[C@@H]1O
Key: 0

---

- tested on: Tissue alpha-L-fucosidase (Bos taurus) (UniProt Q2KIM0)
- Sequence (whole entry): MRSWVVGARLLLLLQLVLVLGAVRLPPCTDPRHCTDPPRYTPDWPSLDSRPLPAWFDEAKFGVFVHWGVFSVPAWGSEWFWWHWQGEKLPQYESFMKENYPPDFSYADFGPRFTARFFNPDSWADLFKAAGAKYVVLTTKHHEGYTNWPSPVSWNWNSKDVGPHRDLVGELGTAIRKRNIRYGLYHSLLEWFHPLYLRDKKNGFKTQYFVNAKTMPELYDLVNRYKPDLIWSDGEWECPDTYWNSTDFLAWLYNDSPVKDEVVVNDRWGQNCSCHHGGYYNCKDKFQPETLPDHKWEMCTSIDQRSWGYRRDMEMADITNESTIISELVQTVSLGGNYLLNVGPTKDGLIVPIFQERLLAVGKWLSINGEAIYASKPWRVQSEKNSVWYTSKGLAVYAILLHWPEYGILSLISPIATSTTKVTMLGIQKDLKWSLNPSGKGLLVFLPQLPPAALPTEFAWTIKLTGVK
- test: Inhibition of bovine kidney alpha-L-fucosidase assessed as release of p-nitrophenol at 1000 uM using p-nitrophenyl glycoside as substrate by spectrometric assay relative to control
measure name: inhibition (%)
I only need the number, in %, no unit after it.

Exercise: Item COc1cccc([C@@]2(CO)NC[C@H](O)[C@H]2O)c1 has what recorded inhibition?
Key: 1.6

Exercise: Now the molecule COc1ccc([C@]2(CO)NC[C@@H](O)[C@@H]2O)cc1
Key: 2.7

Exercise: Now the molecule OC[C@@]1(c2c(F)c(F)c(F)c(F)c2F)NC[C@@H](O)[C@@H]1O
Key: 3.8

Exercise: Now the molecule OC[C@@]1(c2ccc(O)cc2)NC[C@@H](O)[C@@H]1O
Key: 0

Exercise: Now the molecule Cc1ccc([C@]2(CO)NC[C@@H](O)[C@@H]2O)cc1
Key: 0

Exercise: Now the molecule COc1ccc([C@@]2(CO)NC[C@H](O)[C@H]2O)cc1OC
Key: 0.5

Exercise: Now the molecule CCCCCCCCC[C@]1(CO)NC[C@@H](O)[C@@H]1O
Key: 0

Exercise: Now the molecule OC[C@]1(c2ccc(O)cc2)NC[C@H](O)[C@H]1O
Key: 0

Exercise: Now the molecule OC[C@@]1(c2ccc(F)cc2)NC[C@@H](O)[C@@H]1O
Key: 0

Exercise: Now the molecule CCCC[C@]1(CO)NC[C@@H](O)[C@@H]1O
Key: 20.8

Exercise: Now the molecule COc1ccc([C@]2(CO)NC[C@@H](O)[C@@H]2O)cc1OC
Key: 0

Exercise: Now the molecule OC[C@]1(c2c(F)c(F)c(F)c(F)c2F)NC[C@H](O)[C@H]1O
Key: 0

Exercise: Now the molecule OC[C@@]1(c2cccc(F)c2)NC[C@@H](O)[C@@H]1O
Key: 0

---

- Species on record: Bos taurus
- test: Inhibition of bovine liver beta-glucronidase assessed as release of p-nitrophenol at 1000 uM using p-nitrophenyl glycoside as substrate by spectrometric assay relative to control
What inhibition was measured for each of the following?
I only need the number, in %, no unit after it.

Exercise: Item OC[C@@]1(c2cccc(F)c2)NC[C@@H](O)[C@@H]1O has what recorded inhibition?
Key: 26.2

Exercise: Now the compound OC[C@@]1(c2ccccc2)NC[C@@H](O)[C@@H]1O
Key: 1.8

Exercise: Now the compound OC[C@]1(c2c(F)c(F)c(F)c(F)c2F)NC[C@H](O)[C@H]1O
Key: 3.6

Exercise: Now the compound COc1cccc([C@@]2(CO)NC[C@H](O)[C@H]2O)c1
Key: 8.2

Exercise: Now the compound OC[C@@]1(c2ccc(O)cc2)NC[C@@H](O)[C@@H]1O
Key: 19.9

Exercise: Now the compound C[C@]1(CO)NC[C@@H](O)[C@@H]1O
Key: 4.3

Exercise: Now the compound OC[C@]1(c2ccc(F)cc2)NC[C@H](O)[C@H]1O
Key: 10.9

Exercise: Now the compound CCCC[C@]1(CO)NC[C@@H](O)[C@@H]1O
Key: 7.2
